Provenance of the data: patent US20230150924A1

System: KAI1 promoter
Experiment: KAI1 promoter luciferase reporter assay in transfected Caco2 cells
Assay type: cell-based, human
Conditions: Homo sapiens, Caco-2, 16 h, 1 μM compound, 16 hours, transfected Caco2 cells, luciferase activity relative to DMSO control (=1); read-out: Relative KAI promoter activity
Output yes for records whose fold induction at 1 µM is lower than 1, no for records at or above 1.

structure=COc1ccc(NC(=O)COc2ccccc2C(=O)NCC(=O)c2ccccc2)cc1F answer_label=no
structure=CC(C)NC(=O)COc1ccccc1C(=O)NCC(=O)c1ccccc1 answer_label=no
structure=Cc1ccccc1C(=O)N1CCC(Oc2ccccc2C(=O)NCC(=O)c2ccccc2)CC1 answer_label=yes
structure=CCCN(CCC)Cc1ccc(C(=O)NCC(=O)c2ccccc2)cc1 answer_label=no
structure=O=C(CNC(=O)c1ccc(OC(F)(F)F)cc1)c1ccccc1 answer_label=no
structure=CC(C)(C)C(=O)N1CCC(Oc2ccccc2C(=O)NCC(=O)c2ccccc2)CC1 answer_label=yes
structure=COc1ccc(C(=O)N2CCC(Oc3ccccc3C(=O)NCC(=O)c3ccccc3)CC2)cc1 answer_label=no
structure=COc1cccc(C(=O)CNC(=O)C2CCC2)c1 answer_label=no
structure=O=C(CNC(=O)c1ccccc1OC1CCN(C(=O)c2ccc(F)cc2)CC1)c1ccccc1 answer_label=no
structure=CCCCN(CC)Cc1ccc(C(=O)NCC(=O)c2ccccc2)cc1 answer_label=no
structure=O=C(COc1ccccc1C(=O)NCC(=O)c1ccccc1)Nc1ccccc1Cl answer_label=no
structure=O=C(CNC(=O)c1ccc(F)cc1F)c1ccc(Cl)cc1 answer_label=no
